Molecular target: UniProt:Q14191
Sequence (Q14191 517-1238): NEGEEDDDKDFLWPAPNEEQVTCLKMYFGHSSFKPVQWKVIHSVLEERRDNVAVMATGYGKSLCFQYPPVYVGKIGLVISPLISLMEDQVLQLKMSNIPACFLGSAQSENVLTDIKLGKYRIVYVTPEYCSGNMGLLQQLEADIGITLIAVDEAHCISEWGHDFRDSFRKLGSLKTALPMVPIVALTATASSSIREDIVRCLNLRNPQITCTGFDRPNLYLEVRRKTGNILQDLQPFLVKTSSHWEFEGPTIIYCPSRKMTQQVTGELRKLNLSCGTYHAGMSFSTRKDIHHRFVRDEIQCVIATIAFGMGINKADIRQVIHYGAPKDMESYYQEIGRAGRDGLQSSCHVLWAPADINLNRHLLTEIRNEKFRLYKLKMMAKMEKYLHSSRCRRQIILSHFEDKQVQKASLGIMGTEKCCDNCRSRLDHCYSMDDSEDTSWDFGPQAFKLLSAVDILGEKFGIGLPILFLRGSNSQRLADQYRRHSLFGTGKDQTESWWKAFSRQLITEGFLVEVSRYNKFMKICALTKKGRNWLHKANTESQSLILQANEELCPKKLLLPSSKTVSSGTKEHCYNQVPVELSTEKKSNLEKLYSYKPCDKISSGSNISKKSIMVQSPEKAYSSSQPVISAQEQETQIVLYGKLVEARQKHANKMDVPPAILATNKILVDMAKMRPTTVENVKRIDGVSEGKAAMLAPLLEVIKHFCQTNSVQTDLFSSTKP
Test: In vitro enzymatic activity assay on WRN helicase (DNA dependent ATPase assay, ADP-Glo)
Type: biochemical
Conditions: geometric means of at least 2 determinations; read-out: WRN ATPase Activity (IC50)
pIC50: −log10 of the molar value.
readout: pIC50

Some compounds with known pIC50 results, for comparison:
INSERT INTO results (compound, quantitative_result) VALUES
  ('CCc1c(N2CCN(C(=O)c3ncc(C)c(F)c3O)CC2)c(=O)n2nc(C3=CCOCC3)nc2n1CC(=O)Nc1ccc(C(F)(F)F)cc1Cl', 7.10),
  ('CCc1c(N2CCN(C(=O)c3ncnc(C)c3O)CC2)c(=O)n2nc(C3=CCCCO3)nc2n1CC(=O)Nc1ccc(C(F)(F)F)nc1Cl', 6.89),
  ('CCc1c(N2CCN(C(=O)c3nccc(Cl)c3O)CC2)c(=O)n2nc(C3=CC[C@H](OC)CC3)nc2n1CC(=O)Nc1ccc(C(F)(F)F)nc1Cl (single isomer, unassigned) [Example 24b]', 7.00),
  ('CCc1c(N2CCN(C(=O)c3nccc(Cl)c3O)CC2)c(=O)n2nc(C3=COCCO3)nc2n1CC(=O)Nc1ccc(C(F)(F)F)cc1C', 7.10);

(P) CCc1c(N2CCN(C(=O)c3ncccc3O)CC2)c(=O)n2nc(-c3cccnc3)nc2n1CC(=O)Nc1ccc(C(F)(F)F)cc1C
(Q) CCc1c(N2CCN(C(=O)c3ncccc3O)CC2)c(=O)n2nc(N3CCC[C@@H](F)C3)nc2n1CC(=O)Nc1ccc(C(F)(F)F)cc1Cl (single isomer, unassigned) [Example 15a]
Inquiry: Lowest pIC50? choose P or Q State your choice using its label.
Reply text: Q
